- TEST TARGET: Protein S100-A4 (Homo sapiens)
- TEST NAME: human S100A4 peptide interaction inhibition curves – biochemical, fluorescence polarization, cherry-picked hits, dose response (AID 687001)
- PROTOCOL CONDITIONS: FP, S100A4/TAMRA-myosin IIA peptide binding; series mostly up to 11 µM
Entries with a potency or affinity are not part of this list. Calls of active or inactive are those of the source.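 The calls were made as follows: active = signal-lowering compounds whose fitted half-maximal concentration is at or below twice the top tested dose in every run; inconclusive = runs disagree, flat 30 to 70% inhibition, or poor curve fit; inactive = the rest.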
MEASURED PARAMETER: activity change, negative = inhibition

compound=O=C1CCCn2cc(nn2)COC[C@@H](Cc2ccccc2)N1 meas_value=inactive
compound=Cc1cc2cc(CNC(=O)Nc3cccc(Cl)c3)ccc2n1C meas_value=inactive
compound=COc1ccccc1-c1noc2c1C(=O)N(Cc1cn(-c3ccc(Cl)cc3)nn1)CC2 meas_value=inactive
compound=COc1ccccc1S(=O)(=O)N[C@H]1CC[C@H](CC(=O)N2CCN(C)CC2)O[C@@H]1CO meas_value=inactive
compound="CCOc1ccc(/C=N/NC(=O)c2ccccc2C)cc1CN1CC2CC(C1)c1cccc(=O)n1C2 (centres undefined)" meas_value=inactive
compound=COc1ccc(-c2ccc3c(c2)O[C@H](CN(C)Cc2cccnc2)[C@@H](C)CN([C@H](C)CO)S3(=O)=O)cc1 meas_value=inactive
compound="Cc1ccc(C2CC(=O)NC(SCCC(C)C)=C2C#N)cc1 (centres undefined)" meas_value=inactive
compound=CCN(CC(=O)Nc1ccccc1C(F)(F)F)C(=O)c1ccc(NC(=O)c2cccs2)cc1 meas_value=inactive
compound=CC(C)CC#Cc1ccc([C@@H]2[C@H](CO)N3C(=O)CN(C(=O)c4ccccn4)C[C@@H]23)cc1 meas_value=inactive
